Biological target: biotinylated human BCMA (human) (UniProt Q02223)
Sequence (Q02223 1-54 limits assumed): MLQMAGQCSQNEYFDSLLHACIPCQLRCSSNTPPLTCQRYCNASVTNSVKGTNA
Assay: BLI (Octet RED384), biotinylated human BCMA on SAX sensors, scFv 1200 nM analyte, 1:1 model
READOUT: koff

01-024 (scFv) (scFv, part only; not given: linker, domain order, Myc-His tags, V domains shown, not shown: another chain or arm of the molecule; small tags and cut ends) VH: EVQLVQSGGGLVQSGGSLRVSCAASGFTFSSGLMSWVRQAPGKGFEWVSCYNGGSDRAGYTDSVKGRFTISRDNAKNTLYLQMNSLKPEDTAVYYCARYIANSGTYYWDYWGQGTTVTVSS VL: QAVLTQPPSASGTPGQRVSISCSGGISNIGSNIVNWYQHLPGTAPKLLIYSGNQRPSGVPDRFSGSKSGTSASLAISGLQSEDEADYYCSSWDSDLRNWVFGGGTKLTVL    0.00057 s⁻¹
01-030 (scFv) (scFv, part only; not given: linker, domain order, Myc-His tags, V domains shown, not shown: another chain or arm of the molecule; small tags and cut ends) VH: EVQLVQSGGGLVQPGGSLRVSCAASGFSFSSGLMSWVRQAPGKGFEWVSGYNGGSDRAGFADSVEGRFTISRDNAKNTLYLQMNSLKPEDTAVYYCARYIANSGTYYWDYWGQGTLVTVSS VL: QSALTQPPSASGTPGQRVTISCSGSISNIGSNTVNWYQHLPGTAPKLLIYNHNQRPSGVPDRFSGSTSGTSASLAISGLQSEDEADYFCATWDDSLSAWLFGGGTKLTVL    0.000939 s⁻¹
01-025 (scFv) (scFv, part only; not given: linker, domain order, Myc-His tags, V domains shown, not shown: another chain or arm of the molecule; small tags and cut ends) VH: EVQLVQSGGGLVQSGGSLRVSCAASGFTFSSGLMSWVRQAPGKGFEWVSGYNGGSDRAGYTDSVKGRFTISRDNAKNTLYLQMNSLKPEDTAVYYCARYIANSGTYYWDYWGQGTTVTVSS VL: QPVLTQPPSVSEAPRQRVTISCSGSSSNIGNNAVNWYQQLPGKAPKLLIYSTNQRPSGVPDRFSGSKSGTSASLAISGLQSEDEADYYCAAWDDRVSAWLFGGGTKLTVL    0.00128 s⁻¹

Hi! Can you tell me koff for each of these binders?
1. 01-026 (scFv) (scFv, part only; not given: linker, domain order, Myc-His tags, V domains shown, not shown: another chain or arm of the molecule; small tags and cut ends) VH: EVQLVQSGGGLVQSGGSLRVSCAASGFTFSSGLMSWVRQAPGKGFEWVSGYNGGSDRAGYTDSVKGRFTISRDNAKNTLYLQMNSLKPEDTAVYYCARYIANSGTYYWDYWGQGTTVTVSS VL: QSVLTQPPSVSGAPGQRVTISCTGSSSNIGAGYDVHWYQQLPGTAPKLVIYGNTNRPSGVPDRFSGSKSGTSASLAISGLQSEDEADYYCAAWDDSLNGWVFGGGTKLTVL
2. 01-027 (scFv) (scFv, part only; not given: linker, domain order, Myc-His tags, V domains shown, not shown: another chain or arm of the molecule; small tags and cut ends) VH: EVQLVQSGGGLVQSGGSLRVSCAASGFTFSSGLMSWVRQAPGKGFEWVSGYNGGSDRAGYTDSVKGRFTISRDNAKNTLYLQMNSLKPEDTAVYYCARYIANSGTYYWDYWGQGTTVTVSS VL: QAVLTQPPSASGTPGQRVSISCSGGISNIGSNIVNWYQHLPGTAPKLLIYSGNQRPSGVPDRFSGSKSGTSASLAISGLQSEDEADYYCSSWDSDLRNWVFGGGTKLTVL

### Response
1. 0.00248 s⁻¹
2. 0.00096 s⁻¹
